Target: T1, Murine CTGF (Mus musculus, UniProt P29268)
T1 construct: purchased Abbexa
T1 sequence (P29268 26-348): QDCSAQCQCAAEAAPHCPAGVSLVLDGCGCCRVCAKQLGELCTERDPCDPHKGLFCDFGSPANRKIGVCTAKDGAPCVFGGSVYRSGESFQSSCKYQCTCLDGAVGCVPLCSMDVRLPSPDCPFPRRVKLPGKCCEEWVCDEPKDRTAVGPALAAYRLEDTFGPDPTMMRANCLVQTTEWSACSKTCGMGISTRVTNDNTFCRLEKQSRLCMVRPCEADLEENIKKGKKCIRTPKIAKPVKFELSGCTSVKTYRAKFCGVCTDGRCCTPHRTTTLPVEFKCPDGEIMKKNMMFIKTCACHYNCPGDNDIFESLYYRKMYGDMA
Test: SPR binding kinetics and affinity, murine CTGF
Conditions: 25° C., 1:1 binding model
Kind request: treat 0.0001 s⁻¹ as inclusive, so Murine CTGF koff at 0.0001 s⁻¹ or higher is MET, anything lower is NOT MET.

[[record]]
molecule = "SEQ ID NO: 24: optimized CTGF-binding hNGAL lipocalin mutein (protein, lipocalin mutein) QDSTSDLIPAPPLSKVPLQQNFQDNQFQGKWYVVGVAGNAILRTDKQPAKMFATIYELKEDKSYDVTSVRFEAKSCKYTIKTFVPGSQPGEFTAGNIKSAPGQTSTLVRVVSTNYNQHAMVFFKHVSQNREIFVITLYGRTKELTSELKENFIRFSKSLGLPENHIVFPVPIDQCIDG"
category = "NOT MET"

[[record]]
molecule = "SEQ ID NO: 12: optimized CTGF-binding hNGAL lipocalin mutein (protein, lipocalin mutein) QDSTSDLIPAPPLSKVPLQQNFQDNQFQGKWYVVGLAGNAILREDKYPAKMFATIYELKEDKSYDVTSVRFENKSCVYTIKTFVPGSQPGEFTTGNIKSAPGQTSTLVRVVSTNYNQHAMVFFKHVSQNREFFVITLYGRTKELTSELKENFIRFSKSLGLPENHIVFPVPIDQCIDG"
category = "MET"

[[record]]
molecule = "SEQ ID NO: 8: optimized CTGF-binding hNGAL lipocalin mutein (protein, lipocalin mutein) QDSTSDLIPAPPLSKVPLQQNFQDNQFQGKWYVVGLAGNYGLRTDKRPSKMFATIYELKEDKSYDVTSVRFEQERCHYTIRTFVPGSQPGEFTSGNIGNYPGSYSTLVRVVSTNYNQHAMVFFKSVIQNREYFAITLYGRTKELTSELKENFIRFSKSLGLPENHIVFPVPIDQCIDG"
category = "MET"

[[record]]
molecule = "SEQ ID NO: 14: optimized CTGF-binding hNGAL lipocalin mutein (protein, lipocalin mutein) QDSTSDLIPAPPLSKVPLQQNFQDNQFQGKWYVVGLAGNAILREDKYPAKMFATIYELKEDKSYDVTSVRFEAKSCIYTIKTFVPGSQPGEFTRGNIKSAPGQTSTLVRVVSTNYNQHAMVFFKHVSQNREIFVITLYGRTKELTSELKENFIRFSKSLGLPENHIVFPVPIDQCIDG"
category = "NOT MET"

[[record]]
molecule = "SEQ ID NO: 9: parent CTGF-binding hNGAL lipocalin mutein (protein, lipocalin mutein) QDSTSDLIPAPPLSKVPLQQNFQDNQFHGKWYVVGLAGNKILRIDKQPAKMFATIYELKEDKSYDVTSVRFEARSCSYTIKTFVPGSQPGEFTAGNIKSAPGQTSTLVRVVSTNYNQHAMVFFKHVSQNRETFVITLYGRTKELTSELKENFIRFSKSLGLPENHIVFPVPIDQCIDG"
category = "MET"

[[record]]
molecule = "SEQ ID NO: 32: optimized CTGF-binding hNGAL lipocalin mutein (protein, lipocalin mutein) QDSTSDLIPAPPLSKVPLQQNFQDNQFQGKWYVVGWAGNVKLREDKQPFKMSATIYELKEDKSYDVTEVVFEQKKCHYIIKTFVPGSQPGEFTLSPISSSPGLVSHLVRVVSTNYNQHAMVFFKKVHQNREFFWITLYGRTKELTSELKENFIRFSKSLGLPENHIVFPVPIDQCIDG"
category = "MET"


Recorded values, source patent US20240228562A1.
